# Measured target: ETS1 (UniProt P14921)
# Sequence: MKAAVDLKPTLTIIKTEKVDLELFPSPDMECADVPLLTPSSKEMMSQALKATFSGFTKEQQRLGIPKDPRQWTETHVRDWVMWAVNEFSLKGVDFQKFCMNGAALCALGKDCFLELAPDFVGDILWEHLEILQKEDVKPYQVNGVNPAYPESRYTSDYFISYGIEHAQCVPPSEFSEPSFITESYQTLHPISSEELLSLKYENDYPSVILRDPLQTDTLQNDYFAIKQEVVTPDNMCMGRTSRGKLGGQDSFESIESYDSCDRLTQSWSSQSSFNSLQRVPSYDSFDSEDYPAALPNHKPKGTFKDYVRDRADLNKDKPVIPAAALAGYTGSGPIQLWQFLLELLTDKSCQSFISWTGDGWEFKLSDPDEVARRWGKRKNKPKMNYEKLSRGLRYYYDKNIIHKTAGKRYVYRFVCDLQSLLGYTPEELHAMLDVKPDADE
# Experiment description: ETS1 binding intensity (PBM fluorescence), ETS1 alone (arbitrary fluorescence units); higher = stronger binding
# Experimental setup: ETS1 concentration 1 nM; RUNX1 concentration 0 nM
Over roughly 4,100 sequences, “arbitrary fluorescence units” has its median near 780; the highest 2% begin near 22,000. Shown is part of a subset that was picked to be rich in the highest values.
Reported endpoint: ETS1 binding intensity

# Monomer sequence, Value
records = [
    ("GTGAGCTTCCCGGCGCGCGGGGGGCGGTGCGCCTTC", 797),
    ("CACTTCCTGTCAAAGCCAGTTCCTTAGCCGCTTAGG", 45000),
    ("GGACCGGAAGTAGGTTTCTACCCGAGCGCATTTTAC", 27600),
    ("TCTCCCTGCCCGCGAGTCAAAGCCACTTCCTTTTCC", 917),
    ("GGCTGCGACTTCCGGACTGCTCCTGGCCGCTGGGGG", 22900),
    ("TTTCTGACTTCCTGTGTGCTTCAGAAACCCCAATGA", 25100),
    ("GCCACCTTACGACAGCTGTACAGAGCTTCCTTTAGC", 390),
    ("CAGGACCCCTGTACTCCGGGTGAAGCGGAAGCGCAG", 667),
    ("GCAGGACTTCCTGTGTTGTGCTAACCCCAAATTACA", 22100),
    ("TTGTGGACGCGGATTTGGGGGCGGGTATCCGGGCCT", 564),
    ("CAGATTTCCGGCTTCTGAGGAGCTGCCCTACCCCAG", 38200),
    ("CAGCCGACTTCCGGGGTGGGGCTTGCTGCCGCTGAG", 19300),
]
